- Format: in vivo, human
- measurementParameters: human, plasma, oral, 400 mg
measurementName: t max (h)
Value expressed in h; do not type the unit.

Q: Can you look up the measured t max of Cc1cccc(C)c1N(CC(=O)Nc1ccc(-c2ncon2)cc1)C(=O)C1CCS(=O)(=O)CC1 for me?
Result: 3

* * *

- Type: in vivo, human
- measurementParameters: human, plasma, oral, 400 mg
measurementName: t max (h)
Please respond with the number in h and leave the unit unwritten.

Q: Could you tell me which t max is on file for Cc1cccc(C)c1N(CC(=O)Nc1ccc(-c2ncon2)cc1)C(=O)C1CCS(=O)(=O)CC1 ?
Result: 4

* * *

- Type: in vivo, human
- measurementParameters: human, plasma, oral, 400 mg
measurementName: half-life (min)
API: value field is a number in min; no unit string.

Q: Fill in the blank: the reported half-life of Cc1cccc(C)c1N(CC(=O)Nc1ccc(-c2ncon2)cc1)C(=O)C1CCS(=O)(=O)CC1 is ____.
Result: 486

Taken from paper PMC5702381.
